- Tested on: C57BL/6J mice
- experiment-summary: Food intake test in mouse (GHSR1a antagonists)
- Type: in vivo
- protocol-conditions: Mus musculus, ip, 1 h, i.p. 10 mg/kg
Consider the following compounds; for each one, report its inhibition in vivo at 10 mg/kg.
Write it as a number; the unit % goes unstated.

input: Dear colleague, I am looking for the recorded inhibition in vivo at 10 mg/kg of the following compound: CN1CCC(N(O)C(=O)NC(CC2CC2)c2ccc(-c3cnccn3)c(Cl)c2Cl)CC1 (single isomer, unassigned) [Compound H0782]
output: 93

input: Item under review: CC(NC(=O)N(O)C1CCN(C)CC1)c1ccc(-c2cncc(C#N)c2)c(Cl)c1Cl (centres unmarked) . Reported inhibition in vivo at 10 mg/kg?
output: 76

input: Requested read-out: inhibition in vivo at 10 mg/kg. Entry: CC(NC(=O)N(C)C1CCN(C)CC1)c1ccc(/C=C/c2cccs2)c(Cl)c1Cl (centres unmarked)
output: 88

input: Looking for the measured inhibition in vivo at 10 mg/kg of CC(NC(=O)N(Cc1ccc(CO)cc1)C1CCN(C)CC1)c1ccc(-c2cn[nH]c2)c(Cl)c1Cl (centres unmarked) , can you help?
output: 57

input: What value of inhibition in vivo at 10 mg/kg has been reported for the following compound? CC(NC(=O)N(C)C1CCN(C)CC1)c1ccc(C#Cc2nccs2)c(Cl)c1Cl (centres unmarked)
output: 74

input: Recorded inhibition in vivo at 10 mg/kg for CC(NC(=O)N(C)C1CCN(C)CC1)c1ccc(C#Cc2ccsc2)c(Cl)c1Cl (centres unmarked) , please?
output: 85

input: Quick one: inhibition in vivo at 10 mg/kg of C#Cc1ccc(C(C)NC(=O)N(C)C2CCN(C)CC2)c(Cl)c1Cl (centres unmarked) [Compound H0603] ?
output: 34

input: I'd like to know its inhibition in vivo at 10 mg/kg. The compound in question is CN1CCC(N(O)C(=O)NC(CC2CC2)c2ccc(-c3cnccn3)c(Cl)c2Cl)CC1 (centres unmarked) [Compound H0761]
output: 63

====

- experiment-summary: Metabolic Stability (H = Human)
- Type: in vitro ADME
recorded-metric: Metabolic Stability H

{"columns": ["compound", "result"],
 "data": [
  ["CC(NC(=O)N(C)C1CCN(C)CC1)c1ccc(-c2ccc(C(F)F)s2)c(Cl)c1Cl (stereo not shown) [Compound H0654]", "High"],
  ["CC(NC(=O)N(C)C1CCN(C)CC1)c1ccc(-c2cccc(N)c2)c(Cl)c1Cl (stereo not shown) [Compound H0510]", "High H High M"],
  ["CN1CCC(N(C)C(=O)NC(C#N)c2ccc(-c3ccsc3)c(Cl)c2Cl)CC1 (stereo not shown) [Compound H0644]", "Medium H Medium M"],
  ["COc1ccc(-c2ccc(C(C)NC(=O)N(C)C3CCN(C)CC3)c(Cl)c2Cl)cn1 (stereo not shown) [Compound H0511]", "Medium H Medium M"]
]}

input: Entry C#Cc1ccc(C(C)NC(=O)N(C)C2CCN(C)CC2)c(Cl)c1Cl (single isomer, unassigned) [Compound H0677] : reported Metabolic Stability H = ?
output: High

input: Given the entry CC(NC(=O)N(C)C1CCN(C)CC1)c1ccc(-c2cncc(C#N)c2)c(Cl)c1Cl (stereo not shown) [Compound H0613] , report its measured Metabolic Stability H.
output: High H High M

input: I'd like to know its Metabolic Stability H. The compound in question is CC(NC(=O)N(C)C1CCN(C)CC1)c1ccc(-c2ccc(CO)s2)c(Cl)c1Cl (stereo not shown) [Compound H0653]
output: Medium H Medium M

input: Can you look up the measured Metabolic Stability H of CC(NC(=O)N(C)C1CCN(C)CC1)c1ccc(-c2cocn2)c(Cl)c1Cl (stereo not shown) [Compound H0569] for me?
output: Medium H Medium M

input: What does the record list as Metabolic Stability H for CC(NC(=O)N(C)C1CCN(C)CC1)c1ccc(-c2ccc(C(N)=O)cc2)c(Cl)c1Cl (stereo not shown) [Compound H0615] ?
output: High

input: Quick one: Metabolic Stability H for CC(NC(=O)N(C)C1CCN(C)CC1)c1ccc(-c2ccsc2)c2ccccc12 (stereo not shown) [Compound H0574] ?
output: Medium H Medium M

input: Find the recorded Metabolic Stability H belonging to CC(NC(=O)N(C)[C@@H]1CCN(C)CC1(C)C)c1ccc(-c2cnccn2)c(Cl)c1Cl (stereo partly shown) [Compound H0824] and report it.
output: High

input: # input compound: COc1ncc(-c2ccc(C(C)NC(=O)N(C)C3CCN(C)CC3)c(Cl)c2Cl)cn1 (stereo not shown) [Compound H0649] ; wanted: its Metabolic Stability H
output: High H High M

input: Recorded Metabolic Stability H for CC(NC(=O)N(C)C1CCN(C)CC1)c1ccc(-c2cncc(CO)c2)c(Cl)c1Cl (stereo not shown) [Compound H0636] , please?
output: High

input: # get_value(readout='Metabolic Stability H', item= CC(NC(=O)N(C)C1CCN(C)CC1)c1ccc(-c2cn[nH]c2)c(Cl)c1Cl (stereo not shown) [Compound H0499] )
output: Medium H Medium M

input: Look at this compound and give its reported Metabolic Stability H. CC(NC(=O)N(C)C1CCN(C)CC1)c1ccc(-c2cnccn2)c(Cl)c1Cl (stereo not shown) [Compound H0700]
output: High H High M

====

- experiment-summary: Metabolic Stability (M = Mouse)
- Type: in vitro ADME
recorded-metric: Metabolic Stability M

{"columns": ["molecule", "Metabolic Stability M"],
 "data": [
  ["CC(NC(=O)N(C)C1CCN(C)CC1)c1ccc(-c2cccc(N)c2)c(Cl)c1Cl (stereo not shown) [Compound H0510]", "High H High M"],
  ["CC(NC(=O)N(C)C1CCN(C)CC1C)c1ccc(-c2cn[nH]c2)c(Cl)c1Cl (stereo not shown) [Compound H0528]", "Medium H Medium M"],
  ["CC(NC(=O)N(C)C1CCN(C)CC1)c1ccc(-c2ccsc2)c2ccccc12 (stereo not shown) [Compound H0574]", "Medium H Medium M"],
  ["CC(NC(=O)N(C)C1CCN(C)CC1)c1ccc(-c2cncc(CO)c2)c(Cl)c1Cl (stereo not shown) [Compound H0636]", "Medium"],
  ["CC(NC(=O)N(O)C1CCN(C)CC1)c1ccc(-c2cccs2)c(Cl)c1Cl (stereo not shown) [Compound H0627]", "High H High M"],
  ["CC(NC(=O)N(C)C1CCN(C)CC1)c1ccc(-c2cncc(N)c2)c(Cl)c1Cl (stereo not shown) [Compound H0704]", "Medium"]
]}

Note: attention shifts to another entry.
input: Need Metabolic Stability M, item CN1CCC(N(C)C(=O)NC(c2ccc(-c3cncc(F)n3)c(Cl)c2Cl)C(F)(F)F)CC1 (stereo not shown) [Compound H0908]
output: High

====

- tgt: GHSR1a (Homo sapiens)
- Sequence (Q92847 whole entry): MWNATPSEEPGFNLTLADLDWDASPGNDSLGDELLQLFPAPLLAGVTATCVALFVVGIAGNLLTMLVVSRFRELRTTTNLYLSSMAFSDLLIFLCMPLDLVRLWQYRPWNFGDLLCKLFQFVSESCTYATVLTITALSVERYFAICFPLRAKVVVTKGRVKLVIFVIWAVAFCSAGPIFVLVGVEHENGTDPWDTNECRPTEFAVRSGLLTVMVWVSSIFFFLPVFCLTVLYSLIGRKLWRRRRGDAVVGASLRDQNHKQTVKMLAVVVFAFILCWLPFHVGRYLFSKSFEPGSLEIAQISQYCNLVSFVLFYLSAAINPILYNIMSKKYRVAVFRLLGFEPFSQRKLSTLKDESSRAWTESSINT
- experiment-summary: Calcium FLIPR assay, GHSR-1a antagonism (reduction of ghrelin response)
- protocol-conditions: HEK293/GHSR1a cells, ghrelin 10 nM
recorded-metric: IC50 (nM)
Number in nM, nothing else.

input: Given the entry CC(C)C#Cc1ccc(C(C)NC(=O)N(C)C2CCN(C)CC2)c(Cl)c1Cl (stereo not shown) [Compound H0852] , what IC50 was observed with GHSR1a (Homo sapiens)?
output: 22

input: Any idea what IC50 came out for C[C@H](NC(=O)N(C)C1CCN(C)C1)c1ccc(-c2cnccn2)c(Cl)c1Cl (single isomer, unassigned) [Compound H0862] on GHSR1a (Homo sapiens)?
output: 3

input: # query: IC50 | item C[C@H](NC(=O)N(C)C1CCN(C)C1)c1ccc(-c2cnccn2)c(Cl)c1Cl (single isomer, unassigned) [Compound H0861] | system: GHSR1a (Homo sapiens)
output: 189

input: Lab request: please report IC50 under test system GHSR1a (Homo sapiens) for CC(NC(=O)N(C)C1CCN(C)CC1)c1ccc(-c2ccccc2)c(Cl)c1Cl (stereo not shown) [Compound H0509]
output: 29

====

- experiment-summary: Metabolic Stability (H = Human)
- Assay type: in vitro ADME
recorded-metric: Metabolic Stability H

// below: answered compounds
{"columns": ["compound", "result"],
 "data": [
  ["CCN(C(=O)N[C@@H](C)c1ccc(-c2cnccn2)c(Cl)c1Cl)C1CCN(C)CC1 [Compound H0889]", "High H High M"],
  ["CC(NC(=O)N(C)C1CCN(C)CC1)c1ccc(-c2cncnc2)c(Cl)c1Cl (stereo not shown) [Compound H0516]", "High H High M"],
  ["CN1CCC(N(C)C(=O)NC(c2ccc(-c3cncnc3)c(Cl)c2Cl)C(F)(F)F)CC1 (stereo not shown) [Compound H0686]", "Medium"],
  ["CC(NC(=O)N(C)C1CCN(C)CC1)c1ccc(-c2c[nH]nn2)c(Cl)c1Cl (stereo not shown) [Compound H0604]", "High H High M"],
  ["C[C@H](NC(=O)N(C)C1CCN(C)CC1)c1ccc(-c2cncc(F)n2)c(Cl)c1Cl [Compound H0847]", "High H High M"]
]}

input: What value of Metabolic Stability H has been recorded for this entry: CC(NC(=O)N(C)C1CCN(C)CC1)c1ccc(-c2cncc(F)n2)c(Cl)c1Cl (stereo not shown) [Compound H0795]
output: High H High M

input: Would you mind telling me what Metabolic Stability H value was observed for CC(NC(=O)N(C)C1CCN(C)CC1)c1ccc(-c2cncc(N)c2)c(Cl)c1Cl (stereo not shown) [Compound H0704] ?
output: High

input: Give the measured Metabolic Stability H of CC(NC(=O)N(Cc1ccc(CO)cc1)C1CCN(C)CC1)c1ccc(-c2cn[nH]c2)c(Cl)c1Cl (stereo not shown) [Compound H0553] .
output: Medium

input: Which Metabolic Stability H is listed for CC(NC(=O)N(C)C1CCN(C)CC1)c1ccc(-c2cncc(C(F)F)c2)c(Cl)c1Cl (stereo not shown) [Compound H0637] ?
output: Medium H Medium M

input: Which Metabolic Stability H value is on record for CC(NC(=O)N(O)C1CCN(C)CC1)c1ccc(-c2cccs2)c(Cl)c1Cl (stereo not shown) [Compound H0627] ?
output: High H High M

input: Reported Metabolic Stability H for CC(NC(=O)N(C)C1CCN(C)CC1)c1ccc(-c2ncccn2)c(Cl)c1Cl (stereo not shown) [Compound H0619] : what is it?
output: High H High M
